# assay remarks: protein stability index of a GFP-peptide fusion (yeast GPS) (PSI 1-4); higher = more stable; sorted into four equal gates, so the index is relative within each strain
# condition description: ubr1∆
Everything with protein stability index lower than 3 is rule not met; everything else, including exactly 3, is rule met.

RIISGDQITKMKDRLVE [RPN9]; rule not met

Exercise: Does the reported protein stability index for ELLRLANEQLKLFNRIV [CSN12] fall at or above the 3 mark?
Key: rule not met

Exercise: In plain terms: is recorded protein stability index at least 3 for ADDVFTGTGLQDENIGL [RPC31] ?
Key: rule met

Exercise: Hello, I need to know if ILGIHTSKMNLSEDVNL [RPT2] has measured protein stability index not below 3. Thanks!
Key: rule met

Exercise: Is protein stability index at least 3? Consider KNATEELLRLANEQLKL [CSN12]
Key: rule not met

Exercise: Does NDWQMLEMLKPCVEDGF [RPB2] have a reported protein stability index of at least 3?
Key: rule not met

Exercise: protein stability index >= 3 for IYNSTDSNSEILNFLNQ [YML103C/NUP188] ?
Key: rule not met

Exercise: I'd appreciate it if you could say whether DDLERLKKIRAHRGIRH [RPS18A] has protein stability index at least equal to 3.
Key: rule not met

Exercise: Is it the case that FYVQDVYKDNLSFIQVR [RPO31] has protein stability index reaching or exceeding 3?
Key: rule not met

Exercise: Identify whether the reported protein stability index of the following sequence is 3 or greater: EEIPINSSEQESDYEPN [SIR3]
Key: rule not met

Exercise: State whether the measured protein stability index reaches 3, counting equality as reaching it, for SGGGDSEVQRTMLELLN [RPT6]
Key: rule met

Exercise: I'd appreciate it if you could say whether SYLSETLISRISSLFTI [YML103C/NUP188] has protein stability index at least equal to 3.
Key: rule not met

Exercise: Please tell me: is the sequence YVLSTAVEFESVPLRKG [BRR2] at or over 3 in terms of protein stability index?
Key: rule not met

---

# assay remarks: protein stability index of a GFP-peptide fusion (yeast GPS) (PSI 1-4); higher = more stable; sorted into four equal gates, so the index is relative within each strain
# condition description: doa10∆
attribute measured: protein stability index
Returns: the value as a bare number; no unit string appended.

MEKDKLKNLLRSNFRVN [SNU114]; 1.99
ISYLQEVQCTSTPYLEI [PCI8]; 2.68
FHKYRLKRNSWPKTRGV [RPL2A]; 2.44
QLNEERSRYRREIDALK [YIL149C/MLP2]; 3.44
SKELRAQYGIKALPIRR [RPL26A]; 3.44

Exercise: Respond only with protein stability index recorded for PDIADIPRTFRTPVPST [SNF5]
Key: 2.12

Exercise: Provide only the value of recorded protein stability index for KHYLEDKLKVYKQAMNE [SNF5]
Key: 3.19

Exercise: Provide only the value of recorded protein stability index for MDRDSESEEAETKDIRK [SRB4]
Key: 3.21

Exercise: For LQLIIFLRTQFLKLYVL [RGR1] , write its protein stability index.
Key: 1.25

Exercise: # return recorded protein stability index for input QLGEWAGLGKIDREGNA [RPS12]
Key: 3.67

Exercise: // Input: KHGAKKVAKRTKIKPFI [RPL27A] . Output its protein stability index only.
Key: 2.91

Exercise: Tell me measured protein stability index for FVSNMGFDIQKSCEPVS [SIR4] please.
Key: 2.06

Exercise: Identify measured protein stability index corresponding to GISVPFHSTYLMNGVKP [FAS1]
Key: 1.46

Exercise: Given the sequence LNNNNNNNNTTTTTTTT [SWI1] , write its reported protein stability index.
Key: 3.06

All values here come from the supplement of paper PMC9732359.
